System: HCT-15 | Read-out: GI50
Result Type: GI50

Molecule: COc1ccc(OC)c(/N=C/c2cc(OC)c(OC)c(OC)c2)c1
Test Value: > 92.7 µM
--
Molecule: Cc1nn(C(=O)Cc2ccccc2)c2c1C(c1ccc(Cl)cc1)SC(=N)N2 (stereo unspecified)
Test Value: > 100 µM
--
Molecule: COc1ccc(C2S/C(=C\c3ccc(OC)cc3OC)C(=O)N2NC(=O)Cc2ccccc2)cc1 (stereo unspecified)
Test Value: > 100 µM
--
Molecule: Cc1ccc(S(=O)(=O)NC(=O)Nc2nnc(S(N)(=O)=O)s2)cc1
Test Value: > 100 µM
--
Molecule: O=C=C=P(c1ccccc1)(c1ccccc1)c1ccccc1
Test Value: > 100 µM
--
Molecule: O=C(CC(=O)N1N=C(N(c2ccccc2)c2ccccc2)CC1c1ccccc1)Nc1cccc(Cl)c1 (stereo unspecified)
Test Value: > 100 µM
